Target chain: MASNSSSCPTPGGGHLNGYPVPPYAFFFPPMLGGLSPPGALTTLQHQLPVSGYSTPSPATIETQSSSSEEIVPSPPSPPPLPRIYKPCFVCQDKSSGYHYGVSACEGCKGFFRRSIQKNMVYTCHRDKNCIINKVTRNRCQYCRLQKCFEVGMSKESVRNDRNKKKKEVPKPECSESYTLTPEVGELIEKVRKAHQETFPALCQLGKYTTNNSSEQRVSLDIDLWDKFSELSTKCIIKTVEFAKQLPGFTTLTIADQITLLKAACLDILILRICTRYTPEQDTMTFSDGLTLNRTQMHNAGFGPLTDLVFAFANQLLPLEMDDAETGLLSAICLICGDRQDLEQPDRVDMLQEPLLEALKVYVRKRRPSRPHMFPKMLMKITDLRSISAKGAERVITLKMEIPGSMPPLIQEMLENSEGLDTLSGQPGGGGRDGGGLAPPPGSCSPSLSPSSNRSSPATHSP
Examples of compounds with documented Ki follow.
All answers are understood in nM, so give the number only.

Short answer for CC/C(=C(F)/C=C/C(C)=C/C(=O)O)c1cc(C(C)C)cc2c1N(CC)CCC2(C)C : Ki was 705

Next:
Consider CCCN1CCC(C)(C)c2cc(C(C)C)cc(\C(C)=C(F)/C=C/C(C)=C/C(=O)O)c21 . Its measured Ki is 480

* * *

Biological target: RXRα (Homo sapiens)
Experiment: holoreceptor transactivation assay, RXRα
Details: holoreceptor assay; read-out: RXR Trans. EC50 α
Quantity measured: EC50 (pM)
Express your answer in pM, writing the number without its unit.

Reference set (2 entries):
Noted for CCCN1CCC(C)(C)c2cc(C(C)C)cc(\C(C)=C(F)/C=C/C(C)=C/C(=O)O)c21 [Compound 29] : its EC50 reads 2000

Note to self: EC50 recorded for CCN1CCC(C)(C)c2cc(C(C)C)cc(\C(C)=C(F)/C=C/C(C)=C/C(=O)O)c21 [Compound 27] was 100

# context switch: different compound, same EC50
Sample CC/C(=C(F)/C=C/C(C)=C/C(=O)O)c1cc(C(C)C)cc2c1N(CC)CCC2(C)C [Compound 28] ; EC50 observed: 300

* * *

Target: RXRα (Homo sapiens)
Construct: expressed in transfected cells
Sequence (P19793 1-462): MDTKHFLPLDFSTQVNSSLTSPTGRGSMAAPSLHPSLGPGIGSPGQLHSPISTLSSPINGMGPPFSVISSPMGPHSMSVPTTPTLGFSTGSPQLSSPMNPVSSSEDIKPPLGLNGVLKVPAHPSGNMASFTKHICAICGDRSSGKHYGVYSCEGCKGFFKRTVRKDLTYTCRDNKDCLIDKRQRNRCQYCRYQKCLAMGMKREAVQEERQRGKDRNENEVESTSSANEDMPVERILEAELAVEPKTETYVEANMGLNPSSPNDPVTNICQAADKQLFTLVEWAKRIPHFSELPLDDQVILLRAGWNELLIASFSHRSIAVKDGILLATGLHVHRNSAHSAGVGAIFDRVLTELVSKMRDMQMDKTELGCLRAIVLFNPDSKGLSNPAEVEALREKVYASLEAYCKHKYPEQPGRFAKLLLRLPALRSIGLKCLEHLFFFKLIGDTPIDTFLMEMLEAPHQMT
Assay: ligand binding assay, RXRα
Conditions: read-out: RXR Bind Ki α
Quantity measured: Ki (nM)
Note: unit nM is implicit; provide only the numeric part.

The reported value for CC/C(=C(F)/C=C/C(C)=C/C(=O)O)c1cc(C(C)C)cc2c1N(CC)CCC2(C)C [Compound 28] in terms of Ki is 2

* * *

The entries below are paired with their reported pEC50.
Target: RXRγ (Homo sapiens)
Sequence (P48443 whole entry): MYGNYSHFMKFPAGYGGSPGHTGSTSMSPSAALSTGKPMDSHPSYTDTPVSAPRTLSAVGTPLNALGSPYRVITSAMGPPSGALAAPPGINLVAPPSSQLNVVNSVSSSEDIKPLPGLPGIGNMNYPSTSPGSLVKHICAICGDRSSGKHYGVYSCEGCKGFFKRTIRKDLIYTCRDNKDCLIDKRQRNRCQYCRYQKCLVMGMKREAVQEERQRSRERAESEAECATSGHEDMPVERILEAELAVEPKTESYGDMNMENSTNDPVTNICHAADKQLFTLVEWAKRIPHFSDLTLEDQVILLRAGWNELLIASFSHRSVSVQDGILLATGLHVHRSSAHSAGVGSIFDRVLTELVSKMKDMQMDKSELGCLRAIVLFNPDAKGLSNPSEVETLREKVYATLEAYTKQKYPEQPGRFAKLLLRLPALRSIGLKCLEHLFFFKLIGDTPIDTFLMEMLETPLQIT
Assay: holoreceptor transactivation assay, RXRγ
Settings: holoreceptor assay; read-out: RXR Trans. EC50 γ
As a rule, pEC50 stands for the negative log10 of the concentration, concentration in M.

Given item CCN1CCC(C)(C)c2cc(C(C)C)cc(\C(C)=C(F)/C=C/C(C)=C/C(=O)O)c21 , the value recorded as its pEC50 is 10.00

Item: CC/C(=C(F)/C=C/C(C)=C/C(=O)O)c1cc(C(C)C)cc2c1N(CC)CCC2(C)C | pEC50: 9.52

Others:
Item: CCCN1CCC(C)(C)c2cc(C(C)C)cc(\C(C)=C(F)/C=C/C(C)=C/C(=O)O)c21 | pEC50: 8.70

* * *

Target: RXRβ (Homo sapiens)
Quantity measured: Ki (nM)
Report the value in nM with no unit label.

Reported Ki ( CCCN1CCC(C)(C)c2cc(C(C)C)cc(\C(C)=C(F)/C=C/C(C)=C/C(=O)O)c21 ) = 15

* * *

Biological target: RARγ (Homo sapiens, UniProt P13631)
Sequence (P13631 whole entry, species assumed): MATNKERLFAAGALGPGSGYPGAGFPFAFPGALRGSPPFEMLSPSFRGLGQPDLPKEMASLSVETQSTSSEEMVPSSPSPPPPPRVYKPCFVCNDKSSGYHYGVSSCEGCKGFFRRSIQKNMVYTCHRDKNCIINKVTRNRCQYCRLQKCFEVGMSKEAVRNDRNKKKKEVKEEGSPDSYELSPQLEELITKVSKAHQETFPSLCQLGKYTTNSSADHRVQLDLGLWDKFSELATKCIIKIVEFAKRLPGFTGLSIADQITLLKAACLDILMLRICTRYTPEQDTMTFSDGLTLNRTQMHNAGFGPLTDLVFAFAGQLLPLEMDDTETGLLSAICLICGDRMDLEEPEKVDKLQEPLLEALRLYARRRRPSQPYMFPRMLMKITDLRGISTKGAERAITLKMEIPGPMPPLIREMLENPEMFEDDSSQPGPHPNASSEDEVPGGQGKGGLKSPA
Experiment: ligand binding assay, RARγ
Conditions: read-out: RAR Bind. Ki γ
Quantity measured: Ki (nM)
Write it as a number; the unit nM goes unstated.

Consider CCCN1CCC(C)(C)c2cc(C(C)C)cc(\C(C)=C(F)/C=C/C(C)=C/C(=O)O)c21 [Compound 29] . Its measured Ki is 1400

* * *

Molecular target: RXRβ (Homo sapiens, UniProt P28702)
Sequence (P28702 1-533): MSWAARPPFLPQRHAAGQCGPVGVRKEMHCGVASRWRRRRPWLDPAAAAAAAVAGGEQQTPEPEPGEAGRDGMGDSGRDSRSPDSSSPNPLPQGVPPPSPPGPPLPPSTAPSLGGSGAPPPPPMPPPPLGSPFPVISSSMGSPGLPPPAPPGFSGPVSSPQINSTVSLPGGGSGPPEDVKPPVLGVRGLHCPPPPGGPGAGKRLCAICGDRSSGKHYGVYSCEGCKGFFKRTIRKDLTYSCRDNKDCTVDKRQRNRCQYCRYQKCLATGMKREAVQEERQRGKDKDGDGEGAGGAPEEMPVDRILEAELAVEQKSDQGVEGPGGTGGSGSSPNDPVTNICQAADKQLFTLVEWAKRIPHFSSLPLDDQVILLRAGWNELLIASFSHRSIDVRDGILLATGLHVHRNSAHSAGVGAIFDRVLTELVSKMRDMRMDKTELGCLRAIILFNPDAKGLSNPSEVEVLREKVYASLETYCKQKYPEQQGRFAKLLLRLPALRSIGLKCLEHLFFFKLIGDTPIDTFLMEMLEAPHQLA
Assay: holoreceptor transactivation assay, RXRβ
Conditions: holoreceptor assay; read-out: RXR Trans. EC50 β
Some compounds, each annotated with its measured pEC50.
Schema: pEC50 number; meaning minus log10 of the concentration expressed in molar units.

In the examples that follow, each entry is paired with its recorded pEC50.
Tested on RXRβ (Homo sapiens, UniProt P28702), the item CC/C(=C(F)/C=C/C(C)=C/C(=O)O)c1cc(C(C)C)cc2c1N(CC)CCC2(C)C showed pEC50 equal to 9.40

Log: RXRβ (Homo sapiens, UniProt P28702), compound CCN1CCC(C)(C)c2cc(C(C)C)cc(\C(C)=C(F)/C=C/C(C)=C/C(=O)O)c21 , pEC50 = 9.30

As a next step, examine the compound that follows.
CCCN1CCC(C)(C)c2cc(C(C)C)cc(\C(C)=C(F)/C=C/C(C)=C/C(=O)O)c21 tested on RXRβ (Homo sapiens, UniProt P28702) gave pEC50: 8.22
